- Test system: NRP Mtb H37Rv cells
- protocolText: Low-oxygen recovery assay (LORA) MIC
- Format: cell-based, Mycobacterium tuberculosis
- runConditions: Mycobacterium tuberculosis, H37RV; NRP Mtb; Tables 1-4 and text; read-out: LORA MIC - ITR
measure: MIC (µg/mL)
Just the number in µg/mL, nothing appended.

[O-][n+]1nc(NC2CCCC2)[n+]([O-])c2ccccc21 [Compound 8e]; 0.68
CCNc1n[n+]([O-])c2cc(F)ccc2[n+]1[O-] [Compound 15aa]; 0.75
COc1cc2c(cc1C)[n+]([O-])nc(N[C@@H]1C[C@H]3CC[C@@H]1C3)[n+]2[O-] [Compound 15gm]; 3.5

Turning now to a further record.
stdin: Quick one: MIC for COc1cc2c(cc1C)[n+]([O-])nc(NC1CCC1)[n+]2[O-] [Compound 15gd] ?
stdout: 2.9

* * *

Record type: MIC measurement. Applies to: H37Rv
The figure you give is taken to be in µg/mL; do not add the unit.

Here is how some compounds turned out for MIC.
COc1cccc(C2CCN(c3n[n+]([O-])c4cc5c(cc4[n+]3[O-])CCC5)C2)c1OC (stereo not shown); 0.391
COc1ccc(CN(C)c2n[n+]([O-])c3cc4c(cc3[n+]2[O-])CCC4)cc1; 0.391
CCNc1n[n+]([O-])c2c(Cl)c(OC)ccc2[n+]1[O-]; 0.4
[O-][n+]1nc(N2CC3CCCC3C2)[n+]([O-])c2cc3c(cc21)CCC3 (stereo not shown); 0.391
[O-][n+]1nc(N2CCC(c3ccc(F)cc3)C2)[n+]([O-])c2cc3c(cc21)CCC3 (stereo not shown); 0.098

stdin: Reported MIC for [O-][n+]1nc(N2CCC(c3ccccc3Cl)C2)[n+]([O-])c2cc3c(cc21)CCC3 (stereo not shown) : what is it?
stdout: 0.098

stdin: Input `CC1(C)CCc2cc3c(cc21)[n+]([O-])nc(N1CCCC1)[n+]3[O-]`
stdout: 0.5

* * *

- Tested on: Vero cells
- protocolText: Cytotoxicity against Vero cells (Cell Titer-Glo)
- runConditions: 72 h; Tables 1-4 and text
The compounds listed here are annotated with their Vero Tox CC50.

stdin: Item NNC(=O)c1ccncc1 [INH, Isoniazid, reference compound] with Vero cells - Vero Tox CC50?
stdout: >50 µg/mL

stdin: What about this compound? Cc1ncc([N+](=O)[O-])n1CCO [Metronidazole, reference compound]
stdout: >16 µg/mL

stdin: Another compound to look at: O=C(Cn1ccnc1[N+](=O)[O-])NCCO [Etanidazole, reference compound]
stdout: >16 µg/mL

* * *

The following compounds are shown together with reported VERO Tox-SRI values.
- Test system: Vero cells
- runConditions: African green monkey, 72 h

// worked examples, VERO Tox-SRI included
[O-][n+]1nc(NC2CCCCC2)[n+]([O-])c2ccc(F)cc21 [SRI-012275]; <2.5
CC(C)CC(C)Nc1n[n+]([O-])c2cc(F)ccc2[n+]1[O-] (stereo not drawn) [SRI-012281]; <2.5

Continue with the compound presented below.
stdin: # lookup: VERO Tox-SRI of [O-][n+]1nc(N[C@@H]2C[C@H]3CC[C@@H]2C3)[n+]([O-])c2ccc(F)cc21 (racemic) [SRI-012280]
stdout: <2.5

* * *

MIC values for the compounds below.
- Tested on: NRP Mtb H37Rv cells
- protocolText: Low-oxygen recovery assay (LORA) MIC
- Format: cell-based, Mycobacterium tuberculosis
- runConditions: Mycobacterium tuberculosis, H37RV; NRP Mtb; Tables 1-4 and text; read-out: LORA MIC - ITR
Please give a number only; it is taken to be in µg/mL.

# annotated cases, reported MIC shown
[O-][n+]1nc(NC2CCC2)[n+]([O-])c2ccc(Br)cc21 [Compound 15cd]; 0.41
CC(C)CCC(C)Nc1n[n+]([O-])c2ccccc2[n+]1[O-] (stereo not shown); 0.38
CCC(COC)Nc1n[n+]([O-])c2ccccc2[n+]1[O-] (stereo not shown); 4.9
CCNc1n[n+]([O-])c2cc(Br)ccc2[n+]1[O-] [Compound 15ca]; 0.46
CCC(COC)Nc1n[n+]([O-])c2cc(Cl)ccc2[n+]1[O-] (stereo not shown) [Compound 15bi]; 0.78

Lab note: next compound to report on.
stdin: Need MIC of [O-][n+]1nc(NC2CCCCC2)[n+]([O-])c2ccc(Cl)cc21 [Compound 15bf] , thanks.
stdout: 0.63

* * *

- Test system: Vero cells
- runConditions: African green monkey, 72 h
measure: Vero Tox CC50 (µg/mL)
Write the value in µg/mL as a bare number.

Check out these entries, answers already filled in.
CCCC(C)Nc1n[n+]([O-])c2ccccc2[n+]1[O-] (stereo not drawn); 26
[O-][n+]1nc(NC2CC2)[n+]([O-])c2ccc(F)cc21 [Compound 15ab]; 1.3
CN(Cc1ccccc1)c1n[n+]([O-])c2cc3c(cc2[n+]1[O-])CCC3 [Compound 20t]; 17
CN(CCc1ccccc1)c1n[n+]([O-])c2cc3c(cc2[n+]1[O-])CCC3 [Compound 20u]; 40
CN(C)c1n[n+]([O-])c2cc3c(cc2[n+]1[O-])CCC3 [Compound 20s]; 24
CCNc1n[n+]([O-])c2cc(Cl)ccc2[n+]1[O-] [Compound 15ba]; 2.6

Note: attention shifts to another entry.
stdin: I have this molecule here, `[O-][n+]1nc(NC2CC2)[n+]([O-])c2ccccc21` , and I need its recorded Vero Tox CC50.
stdout: 21

* * *

- protocolText: in vitro
- runConditions: African green monkey, VERO Tox (CC50)
Below, each entry is listed alongside its reported CC50 at 72 h.

CC(C)CCC(C)Nc1n[n+]([O-])c2ccccc2[n+]1[O-] (stereo not drawn); 4.1 µg/mL

stdin: Fill in the blank: the reported CC50 at 72 h of [O-][n+]1nc(N[C@@H]2C[C@H]3CC[C@@H]2C3)[n+]([O-])c2ccccc21 (racemic) is ____.
stdout: 3.4 µg/mL

stdin: Item: `CC(=O)Nc1cc(/C=C/c2ccc([N+](=O)[O-])o2)ns1`
stdout: > 50 µg/mL

* * *

- System: Vero cells
- runConditions: African green monkey, 72 h
measure: Vero Tox CC50

// known answers, use as guide
[O-][n+]1nc(N[C@@H]2C[C@H]3CC[C@@H]2C3)[n+]([O-])c2ccc(F)cc21 [Compound 15am]; <2.5 µg/mL
CC1CCCCN1c1n[n+]([O-])c2cc3c(cc2[n+]1[O-])CCC3 (centres unmarked) [Compound 20w]; >50 µg/mL
Cc1c(N2CCCC2)[n+]([O-])c2ccccc2[n+]1[O-] [Cmpd 6]; >16 µg/mL
COc1ccc2c(c1)[n+]([O-])nc(N[C@@H]1C[C@H]3CC[C@@H]1C3)[n+]2[O-] [Compound 15dm]; >50 µg/mL

Next compound, Vero Tox CC50 to be filled in.
stdin: Field request: Vero Tox CC50 | item: COCCNC(=O)c1ccc2c(c1)[n+]([O-])c(C(C)=O)c(C)[n+]2[O-] [Cmpd 5]
stdout: >16 µg/mL
